Item-by-item account of pIC50
- assayed.system: LRRK2 (Homo sapiens)
- Sequence (Q5S007 970-2527 limits assumed): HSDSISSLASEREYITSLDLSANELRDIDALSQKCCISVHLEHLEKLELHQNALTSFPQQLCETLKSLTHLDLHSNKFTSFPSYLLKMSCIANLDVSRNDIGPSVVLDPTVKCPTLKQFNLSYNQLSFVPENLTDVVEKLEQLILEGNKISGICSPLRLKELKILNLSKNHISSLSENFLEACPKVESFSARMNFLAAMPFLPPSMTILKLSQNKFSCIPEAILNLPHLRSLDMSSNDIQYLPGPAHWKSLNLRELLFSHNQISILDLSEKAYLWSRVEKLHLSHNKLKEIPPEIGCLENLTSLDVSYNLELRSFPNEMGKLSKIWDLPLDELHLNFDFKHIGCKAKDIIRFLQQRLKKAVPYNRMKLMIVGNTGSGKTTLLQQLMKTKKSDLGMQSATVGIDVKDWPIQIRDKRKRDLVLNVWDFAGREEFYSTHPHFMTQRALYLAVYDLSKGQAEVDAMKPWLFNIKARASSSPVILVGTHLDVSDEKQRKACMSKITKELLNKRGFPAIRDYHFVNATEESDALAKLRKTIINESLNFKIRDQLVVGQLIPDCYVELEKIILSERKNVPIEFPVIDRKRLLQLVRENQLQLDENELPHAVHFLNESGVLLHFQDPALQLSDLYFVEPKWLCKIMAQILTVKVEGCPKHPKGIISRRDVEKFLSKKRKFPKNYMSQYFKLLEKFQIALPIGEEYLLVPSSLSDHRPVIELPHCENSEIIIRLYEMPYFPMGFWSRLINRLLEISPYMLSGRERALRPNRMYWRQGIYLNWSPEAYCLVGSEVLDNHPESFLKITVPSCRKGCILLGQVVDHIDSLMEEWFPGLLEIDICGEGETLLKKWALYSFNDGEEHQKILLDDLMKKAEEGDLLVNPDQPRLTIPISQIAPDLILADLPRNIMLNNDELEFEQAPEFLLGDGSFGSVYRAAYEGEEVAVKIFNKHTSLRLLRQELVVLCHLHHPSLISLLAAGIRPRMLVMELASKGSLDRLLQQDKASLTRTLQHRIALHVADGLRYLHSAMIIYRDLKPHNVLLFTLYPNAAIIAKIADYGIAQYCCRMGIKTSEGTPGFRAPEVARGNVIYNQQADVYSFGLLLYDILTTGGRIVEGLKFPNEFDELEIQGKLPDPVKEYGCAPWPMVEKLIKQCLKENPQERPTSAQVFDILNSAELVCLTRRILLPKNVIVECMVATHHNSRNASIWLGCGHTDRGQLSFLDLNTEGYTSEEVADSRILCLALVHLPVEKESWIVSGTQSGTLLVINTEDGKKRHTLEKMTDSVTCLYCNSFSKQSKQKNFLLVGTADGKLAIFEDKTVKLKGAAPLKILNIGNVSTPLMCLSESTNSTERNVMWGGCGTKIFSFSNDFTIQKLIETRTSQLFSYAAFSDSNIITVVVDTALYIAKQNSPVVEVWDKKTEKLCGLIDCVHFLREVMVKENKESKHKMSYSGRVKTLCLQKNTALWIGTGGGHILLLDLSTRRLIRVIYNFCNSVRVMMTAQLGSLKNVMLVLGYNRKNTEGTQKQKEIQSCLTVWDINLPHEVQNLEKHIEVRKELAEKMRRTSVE
- measurement.description: LRRK2-LRRK2 G2019S-Assay (LanthaScreen Eu Kinase Binding Assay)
- settings: 5 nM LRRK2 or their mutants, 10 nM tracer 236, RT 1 h; read-out: LRRK2 Activities: IC50
pIC50: −log10 of the molar value.

Some molecules with known pIC50 results, for comparison:
INSERT INTO assay_data (molecule, measured_attribute, data_value) VALUES
  ('COc1ccc(Nc2nc(-c3ccncc3)nc3cn[nH]c23)cc1OC [Example #18]', 'pIC50', '6.00 to 7.00'),
  ('CN(C)c1cccc(Nc2nc(-c3ccsc3)nc3cn[nH]c23)c1 [Example #114]', 'pIC50', '6.00 to 7.00'),
  ('CN(C)c1ccc(Nc2nc(-c3cccs3)nc3cn[nH]c23)cc1 [Example #71]', 'pIC50', '7.00 to 8.00'),
  ('COc1ccc(Nc2nc(-c3ccc4c(c3)NCCO4)nc3cn[nH]c23)cc1OC [Example #300]', 'pIC50', '6.00 to 7.00'),
  ('COc1ccc(Nc2nc(-c3cccs3)nc3cn[nH]c23)cc1OC [Example #68]', 'pIC50', '6.00 to 7.00');

Supply measured pIC50 of COc1ccc(Nc2nc(-c3c(F)cccc3F)nc3cn[nH]c23)cc1OC [Example #281] in your reply.
6.00 to 7.00

Give the measured pIC50 for NC(=O)c1cccc(Nc2nc(-c3ccccc3)nc3cn[nH]c23)c1 [Example #5]
6.00 to 7.00

----------
Below are Ki values recorded for SYK kinase (Homo sapiens, UniProt P43405).

Known Ki results, listed for orientation:
INSERT INTO measurements (molecule, data_value) VALUES
  ('CC(=O)N1CCN(c2ccc(Nc3nc(-c4cccc(S(N)(=O)=O)c4)nc4cn[nH]c34)cc2)CC1 [Example #237]', '< 10 nM'),
  ('CS(=O)(=O)c1cccc(-c2nc(Nc3ccc(N4CCOCC4)cc3)c3[nH]ncc3n2)c1 [Example #251]', '< 10 nM'),
  ('FC(F)(F)c1cccc(-c2nc(Nc3ccc(N4CCOCC4)cc3)c3[nH]ncc3n2)c1 [Example #229]', '10 to 100 nM'),
  ('c1csc(-c2nc(Nc3ccc4c(c3)NCCO4)c3[nH]ncc3n2)c1 [Example #91]', '< 10 nM'),
  ('CSc1cccc(-c2nc(Nc3ccc4c(c3)NC(=O)CC4)c3[nH]ncc3n2)c1 [Example #236]', '10 to 100 nM'),
  ('Fc1ccc(-c2nc(Nc3ccc(N4CCOCC4)cc3)c3[nH]ncc3n2)c(F)c1 [Example #286]', '10 to 100 nM');

Lab note: next molecule to report on.
Name the recorded Ki of c1cc(N2CCOCC2)ccc1Nc1nc(-c2ccc3cn[nH]c3c2)nc2cn[nH]c12 [Example #247] , assay system SYK kinase (Homo sapiens, UniProt P43405).
< 10 nM

----------
# Lookup of reported IC50 keyed by entry
- assayed.system: LRRK2 (Homo sapiens)
- measurement.description: LRRK2-LRRK2 G2019S-Assay (LanthaScreen Eu Kinase Binding Assay)
- settings: 5 nM LRRK2 or their mutants, 10 nM tracer 236, RT 1 h; read-out: LRRK2 Activities: IC50

INSERT INTO results (molecule, data_value) VALUES
  ('CN1CCCc2ccc(Nc3nc(-c4cccs4)nc4cn[nH]c34)cc21 [Example #166]', '10 to 100 nM'),
  ('c1ccc2sc(-c3nc(Nc4ccc5c(c4)NCCO5)c4[nH]ncc4n3)nc2c1 [Example #97]', '100 to 1000 nM'),
  ('CN1CCC(c2nc(Nc3ccc(N(C)C)cc3)c3[nH]ncc3n2)CC1 [Example #28]', '100 to 1000 nM');

Consider the record given below.
Write IC50 of c1csc(-c2nc(Nc3ccc(N4CCSCC4)cc3)c3[nH]ncc3n2)c1 [Example #136] ; system used: LRRK2 (Homo sapiens)
10 to 100 nM

Sourced from patent US9802937B2
